- System: Staphylococcus aureus
- Experiment: Antibiofilm activity against methicillin-resistant Staphylococcus aureus ATCC BAA-44 preformed biofilms assessed as reduction in biofilm dispersion
- Format: functional, organism-based
pIC50: −log10 of the molar value.
Measured Endpoint: pIC50

In [3]: df
Out[3]:
                                   molecule  quantitative_result
0  CCCCC(Cl)(Cl)C1NC(=O)/C(=C/c2ccc(C(F)(F)F)cc2)O1 (stereo unspecified)                 5.33

###

- System: Bordetella bronchiseptica
- Experiment: Antibiofilm activity against Bordetella bronchiseptica RB50 assessed as inhibition of biofilm dispersion
- Format: functional, organism-based
pIC50: −log10 of the molar value.
Measured Endpoint: pIC50

>>> print(df.to_string())
                                 mol_smiles            target_of_assay  measured_endpoint  quantitative_result
0  Nc1nc(CCCNC(=O)c2cc(Br)c(Br)n2CCc2ccccc2)c[nH]1  Bordetella bronchiseptica              pIC50                 4.65
1  Nc1nc(CCCNC(=O)c2cc(Br)c(Br)n2-c2ccc(Br)cc2)c[nH]1  Bordetella bronchiseptica              pIC50                 4.53

###

- Target Of Assay: Sortase A (Staphylococcus aureus, UniProt Q9S446)
- Sequence (Q9S446 whole entry): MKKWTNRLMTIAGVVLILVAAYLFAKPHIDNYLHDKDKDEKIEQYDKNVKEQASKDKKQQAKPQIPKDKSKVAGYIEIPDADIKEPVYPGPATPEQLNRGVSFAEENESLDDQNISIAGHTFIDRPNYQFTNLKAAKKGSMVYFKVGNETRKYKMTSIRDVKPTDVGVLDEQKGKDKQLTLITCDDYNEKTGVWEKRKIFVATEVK
pIC50: −log10 of the molar value.
Form field: pIC50 (one value per entry).
Measured Endpoint: pIC50

In [3]: df
Out[3]:
                                 mol_smiles                           target_of_assay  measured_endpoint        result
0                 CC(=O)/C(C#N)=N\Nc1ccccc1  Sortase A (Staphylococcus aureus, UniProt Q9S446)              pIC50  4.04 to 4.30
1  CC(=O)/C(=N\Nc1ccc([N+](=O)[O-])cc1)C(=O)O  Sortase A (Staphylococcus aureus, UniProt Q9S446)              pIC50  4.04 to 4.30
2      CC(=O)/C(=N\Nc1ccc(Cl)c(Cl)c1)C(=O)O  Sortase A (Staphylococcus aureus, UniProt Q9S446)              pIC50  4.04 to 4.30
3          CC(=O)/C(=N\Nc1cccc(Cl)c1)C(=O)O  Sortase A (Staphylococcus aureus, UniProt Q9S446)              pIC50  4.04 to 4.30
4  CCOC(=O)/C(=N/Nc1c(F)cccc1F)C(=O)c1cc(C)nn1CC  Sortase A (Staphylococcus aureus, UniProt Q9S446)              pIC50          4.12
5              CC(=O)/C(=N\Nc1ccccc1)C(=O)O  Sortase A (Staphylococcus aureus, UniProt Q9S446)              pIC50  4.04 to 4.30
6    COc1cc(N/N=C(\C(C)=O)C(=O)O)cc(OC)c1OC  Sortase A (Staphylococcus aureus, UniProt Q9S446)              pIC50  4.04 to 4.30
7            CCOC(=O)/C(=N/Nc1ccccc1)C(C)=O  Sortase A (Staphylococcus aureus, UniProt Q9S446)              pIC50          3.72

Data origin, for the record: ChEMBL document CHEMBL4325854
